Overview of reported MC3R selectivity (relative to MC4R) across a group of compounds:
experimental_system: human MC4R (Homo sapiens, UniProt P32245)
Sequence (P32245 whole entry): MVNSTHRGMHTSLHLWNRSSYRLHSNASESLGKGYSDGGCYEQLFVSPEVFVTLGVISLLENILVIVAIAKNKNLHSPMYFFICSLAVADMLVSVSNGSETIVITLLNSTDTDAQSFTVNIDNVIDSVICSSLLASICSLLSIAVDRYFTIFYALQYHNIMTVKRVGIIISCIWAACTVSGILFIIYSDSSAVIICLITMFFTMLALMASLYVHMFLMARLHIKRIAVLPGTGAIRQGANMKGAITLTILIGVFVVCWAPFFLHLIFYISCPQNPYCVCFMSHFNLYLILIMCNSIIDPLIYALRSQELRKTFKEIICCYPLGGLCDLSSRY
method_summary: Intracellular cAMP levels in live cells, MC3R selectivity relative to MC4R
Format: cell-based
cond: cAMP assays in human MC3R and human MC4R stable cell lines
Non-standard residues stand in square brackets, D forms with d. Residues, ends and D or L forms follow the SMILES beside them. Bip = N[C@@H](Cc1ccc(-c2ccccc2)cc1)C(=O)O; Phe(4-I) = N[C@@H](Cc1ccc(I)cc1)C(=O)O; Nle = CCCC[C@H](N)C(=O)O; dAbu = CC[C@@H](N)C(=O)O; Aib = CC(C)(N)C(=O)O

Take a look at these entries with their results.
{"compound": "CC(=O)N[C@@H](Cc1ccc(O)cc1)C(=O)N[C@H](C(=O)N[C@@H](CCC(=O)O)C(=O)NC(C)(C)C(=O)N[C@@H](Cc1c[nH]cn1)C(=O)N[C@@H](Cc1ccc(I)cc1)C(=O)N[C@@H](CCCNC(=N)N)C(=O)N[C@H](Cc1c[nH]c2ccccc12)C(=O)N[C@@H](CC(=O)O)C(=O)N[C@@H](CCCNC(=N)N)C(=O)N[C@@H](Cc1ccccc1)C(=O)NCC(=O)O)C(C)C [CTX-1195] (Ac-YVE[Aib]H[Phe(4-I)]R[dW]DRFG-OH)", "experimental_system": "human MC4R (Homo sapiens, UniProt P32245)", "MC3R selectivity (relative to MC4R)": 51}
{"compound": "CC[C@@H](NC(=O)[C@H](CCC(=O)O)NC(=O)[C@@H](NC(=O)[C@H](Cc1ccc(O)cc1)NC(C)=O)C(C)C)C(=O)N[C@@H](Cc1c[nH]cn1)C(=O)N[C@@H](Cc1ccc(I)cc1)C(=O)N[C@@H](CCCNC(=N)N)C(=O)N[C@H](Cc1c[nH]c2ccccc12)C(=O)N[C@@H](CC(=O)O)C(=O)N[C@@H](CCCNC(=N)N)C(=O)N[C@@H](Cc1ccccc1)C(=O)NCC(=O)O [CTX-1194] (Ac-YVE[dAbu]H[Phe(4-I)]R[dW]DRFG-OH)", "experimental_system": "human MC4R (Homo sapiens, UniProt P32245)", "MC3R selectivity (relative to MC4R)": 49}

// next entry
Challenge: Look at this compound and give its reported MC3R selectivity (relative to MC4R). CCCC[C@H](NC(C)=O)C(=O)N[C@H](C)C(=O)N[C@@H](Cc1c[nH]cn1)C(=O)N[C@@H](Cc1ccc(-c2ccccc2)cc1)C(=O)N[C@@H](CCCNC(=N)N)C(=O)N[C@H](Cc1c[nH]c2ccccc12)C(=O)N[C@@H](CC(=O)O)C(=O)N[C@@H](CCCNC(=N)N)C(=O)N[C@@H](Cc1ccccc1)C(=O)NCC(N)=O [CTX-1168] (Ac-[Nle][dA]H[Bip]R[dW]DRFG-NH2)
Response given: 485
